tested_on: PI3Kδ (p110δ/p85α)(h) (Homo sapiens, UniProt O00329)
Sequence (O00329 whole entry): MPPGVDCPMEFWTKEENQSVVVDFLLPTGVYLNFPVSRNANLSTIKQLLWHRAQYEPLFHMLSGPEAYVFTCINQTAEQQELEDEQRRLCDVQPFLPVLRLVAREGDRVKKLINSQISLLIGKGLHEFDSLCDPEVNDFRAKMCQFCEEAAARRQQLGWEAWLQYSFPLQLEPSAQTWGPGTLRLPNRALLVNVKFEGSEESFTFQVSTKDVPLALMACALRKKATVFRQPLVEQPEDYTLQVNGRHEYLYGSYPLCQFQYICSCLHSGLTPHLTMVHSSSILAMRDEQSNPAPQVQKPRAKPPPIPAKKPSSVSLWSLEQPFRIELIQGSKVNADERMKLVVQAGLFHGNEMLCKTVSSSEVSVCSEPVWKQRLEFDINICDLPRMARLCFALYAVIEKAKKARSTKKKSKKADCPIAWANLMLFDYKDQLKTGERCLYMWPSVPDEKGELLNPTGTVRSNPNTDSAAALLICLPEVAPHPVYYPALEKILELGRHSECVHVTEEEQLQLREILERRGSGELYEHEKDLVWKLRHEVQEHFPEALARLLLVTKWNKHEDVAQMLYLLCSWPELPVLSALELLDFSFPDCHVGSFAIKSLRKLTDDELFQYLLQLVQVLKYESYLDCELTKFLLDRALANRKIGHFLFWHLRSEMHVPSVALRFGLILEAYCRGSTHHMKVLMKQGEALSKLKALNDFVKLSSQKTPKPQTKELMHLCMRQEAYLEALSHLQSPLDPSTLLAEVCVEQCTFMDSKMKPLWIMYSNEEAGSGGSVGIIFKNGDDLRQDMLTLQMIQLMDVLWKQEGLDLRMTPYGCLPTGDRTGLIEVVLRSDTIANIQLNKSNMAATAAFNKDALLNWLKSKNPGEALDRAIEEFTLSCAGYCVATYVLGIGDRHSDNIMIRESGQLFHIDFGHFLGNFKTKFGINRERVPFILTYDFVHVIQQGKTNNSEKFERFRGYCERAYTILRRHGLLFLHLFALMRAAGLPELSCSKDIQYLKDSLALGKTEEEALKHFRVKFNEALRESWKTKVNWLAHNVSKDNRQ
Sequence (P27986 whole entry partner): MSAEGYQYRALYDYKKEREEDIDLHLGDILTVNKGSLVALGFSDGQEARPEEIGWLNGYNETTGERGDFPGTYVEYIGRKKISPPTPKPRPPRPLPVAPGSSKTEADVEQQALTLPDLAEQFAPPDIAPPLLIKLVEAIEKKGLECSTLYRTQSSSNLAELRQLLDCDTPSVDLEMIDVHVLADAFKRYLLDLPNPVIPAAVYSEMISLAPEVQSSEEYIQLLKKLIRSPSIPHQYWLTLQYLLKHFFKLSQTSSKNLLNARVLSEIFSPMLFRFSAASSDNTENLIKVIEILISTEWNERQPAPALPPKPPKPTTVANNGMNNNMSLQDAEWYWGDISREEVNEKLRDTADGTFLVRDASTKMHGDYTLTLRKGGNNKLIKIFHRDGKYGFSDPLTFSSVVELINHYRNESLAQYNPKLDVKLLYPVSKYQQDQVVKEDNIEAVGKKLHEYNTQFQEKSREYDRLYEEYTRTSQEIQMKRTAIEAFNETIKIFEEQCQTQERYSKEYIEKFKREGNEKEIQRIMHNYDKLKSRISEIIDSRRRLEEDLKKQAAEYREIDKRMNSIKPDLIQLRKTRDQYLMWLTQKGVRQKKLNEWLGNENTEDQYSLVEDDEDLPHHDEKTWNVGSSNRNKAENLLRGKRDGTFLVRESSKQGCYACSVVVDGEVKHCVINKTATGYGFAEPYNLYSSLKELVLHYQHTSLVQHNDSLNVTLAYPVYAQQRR
test_description: PI3K-HTRF in vitro enzyme assay, PI3Kδ
condition_description: enzyme 0.1 μg/ml
observable: IC50 (µM)

The cases that follow already have their IC50 on record.
INSERT INTO measurements (mol, tested_on, observable, recorded_measurement) VALUES
  ('C[C@H](Nc1ncnc2ccc(C#N)cc12)c1cc2cccc(-c3cncnc3)c2c(=O)n1-c1ccccc1', 'PI3Kδ (p110δ/p85α)(h) (Homo sapiens, UniProt O00329)', 'IC50', 0.002),
  ('CC[C@H](Nc1ncnc2ccc(C#N)cc12)c1nc2cccc(-c3cncnc3)c2c(=O)n1-c1ccccc1', 'PI3Kδ (p110δ/p85α)(h) (Homo sapiens, UniProt O00329)', 'IC50', 0.014),
  ('CC(C)[C@H](Nc1ncnc2ccc(C#N)cc12)c1nc2cccc(-c3cnc(N)nc3)c2c(=O)n1-c1ccccc1', 'PI3Kδ (p110δ/p85α)(h) (Homo sapiens, UniProt O00329)', 'IC50', 0.024),
  ('Cc1ncc(-c2cccc3cc([C@H](C)Nc4ncnc5ccc(C#N)cc45)n(-c4ccc(F)cc4)c(=O)c23)cn1', 'PI3Kδ (p110δ/p85α)(h) (Homo sapiens, UniProt O00329)', 'IC50', 0.026),
  ('C[C@H](Nc1ncnc2ccc(C#N)cc12)c1cc2cccc(-c3cnc(C4CC4)nc3)c2c(=O)n1-c1ccccc1', 'PI3Kδ (p110δ/p85α)(h) (Homo sapiens, UniProt O00329)', 'IC50', 0.01),
  ('CC[C@H](Nc1ncnc2ccc(C#N)cc12)c1nc2cccc(-c3cnc(N(C)C)nc3)c2c(=O)n1-c1ccccc1', 'PI3Kδ (p110δ/p85α)(h) (Homo sapiens, UniProt O00329)', 'IC50', 0.02),
  ('CCOc1ncc(-c2cccc3nc([C@H](CC)Nc4ncnc5ccc(C#N)cc45)n(-c4ccccc4)c(=O)c23)cn1', 'PI3Kδ (p110δ/p85α)(h) (Homo sapiens, UniProt O00329)', 'IC50', 0.015),
  ('C[C@H](Nc1ncnc2ccc(C#N)cc12)c1nc2cccc(-c3cncnc3)c2c(=O)n1C1CC1', 'PI3Kδ (p110δ/p85α)(h) (Homo sapiens, UniProt O00329)', 'IC50', 0.01),
  ('C[C@H](Nc1ncnc2cccc(F)c12)c1cc2cccc(-c3cnc(N)nc3)c2c(=O)n1-c1ccccc1', 'PI3Kδ (p110δ/p85α)(h) (Homo sapiens, UniProt O00329)', 'IC50', 0.013),
  ('COc1ncc(-c2cccc3nc([C@@H](Nc4ncnc5ccc(C#N)cc45)C4CC4)n(-c4ccccc4)c(=O)c23)cn1', 'PI3Kδ (p110δ/p85α)(h) (Homo sapiens, UniProt O00329)', 'IC50', 0.017);

[1] COc1ncc(-c2cccc3nc([C@H](C)Nc4ncnc5ccc(C#N)cc45)n(C4CC4)c(=O)c23)cn1
[2] N#Cc1ccc2ncnc(N[C@H](c3nc4cccc(-c5cncnc5)c4c(=O)n3-c3ccccc3)C3CC3)c2c1
Query :: Which value of IC50 is numerically greater: that of 1 or that of 2 ? State your choice using its label.
Result :: 1

[I] CC[C@H](Nc1ncnc2ccc(C#N)cc12)c1nc2cccc(-c3cncnc3)c2c(=O)n1C1CC1
[II] C[C@H](Nc1ncnc2cccc(F)c12)c1nc2cccc(-c3cncnc3)c2c(=O)n1-c1ccccc1
Query :: Which value of IC50 is numerically greater: that of I or that of II ? State your choice using its label.
Result :: II
(II: 0.03 µM, I: 0.015 µM)
